Reference source for all entries: patent US20210139581A1

# test.system: human CD33 on primary human monocyte-derived dendritic cells (human, UniProt P20138 18-364)
# Sequence (P20138 18-364): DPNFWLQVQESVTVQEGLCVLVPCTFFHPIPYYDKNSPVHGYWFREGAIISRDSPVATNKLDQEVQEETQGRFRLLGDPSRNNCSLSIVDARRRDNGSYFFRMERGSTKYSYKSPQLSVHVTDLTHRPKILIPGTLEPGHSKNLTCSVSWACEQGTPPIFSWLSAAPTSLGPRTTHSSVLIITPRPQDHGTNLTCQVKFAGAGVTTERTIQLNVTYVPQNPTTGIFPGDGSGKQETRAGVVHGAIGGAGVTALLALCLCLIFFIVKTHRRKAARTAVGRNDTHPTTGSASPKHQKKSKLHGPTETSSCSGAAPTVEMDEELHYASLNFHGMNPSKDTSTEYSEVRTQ
# experiment.description: cell-based or functional assay
outcome.measure: Receptor downregulation (% remaining at 0.16 µg/mL antibody) (%)
The response must be a number in % with no trailing unit.

AB-64.1.1 (antibody, V domains shown, Variant of AB-64.1) VH: QVQLVQSGAEVKKPGASVKISCKASGYTFTDYNLHWVRQAPGQGLEWIGFIYPSNQITGYAQKFQGRATLTVDNSTSTAYMELSSLRSEDTAVYYCARSDVDYFDYWGQGTLLTVSS VL: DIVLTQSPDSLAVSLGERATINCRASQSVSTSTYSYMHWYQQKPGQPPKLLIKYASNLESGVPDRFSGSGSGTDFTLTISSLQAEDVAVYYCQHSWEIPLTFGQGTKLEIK
37
AB-64.1.6 (antibody, V domains shown, Variant of AB-64.1) VH: QVQLVQSGAEVKKPGASVKISCKASGYTFTDYNLHWVRQAPGQGLEWIGFIYPSNGITGYAQKFQGRATLTVDNSASTAYMELSSLRSEDTAVYYCARSDVDYFDYWGQGTLLTVSS VL: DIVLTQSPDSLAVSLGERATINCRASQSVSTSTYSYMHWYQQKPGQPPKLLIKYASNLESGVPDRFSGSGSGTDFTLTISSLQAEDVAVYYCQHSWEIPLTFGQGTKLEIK
37
AB-64.1.5 (antibody, V domains shown, Variant of AB-64.1) VH: QVQLVQSGAEVKKPGASVKISCKASGYTFTDYNLHWVRQAPGQGLEWIGFIYPSNGITGYAQKFQGRATLTVDQSTSTAYMELSSLRSEDTAVYYCARSDVDYFDYWGQGTLLTVSS VL: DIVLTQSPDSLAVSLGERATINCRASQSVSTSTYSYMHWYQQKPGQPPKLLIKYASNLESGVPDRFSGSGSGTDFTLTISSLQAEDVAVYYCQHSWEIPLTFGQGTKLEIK
37.3

Given the binder AB-64.1.2 (antibody, V domains shown, Variant of AB-64.1) VH: QVQLVQSGAEVKKPGASVKISCKASGYTFTDYNLHWVRQAPGQGLEWIGFIYPSNRITGYAQKFQGRATLTVDNSTSTAYMELSSLRSEDTAVYYCARSDVDYFDYWGQGTLLTVSS VL: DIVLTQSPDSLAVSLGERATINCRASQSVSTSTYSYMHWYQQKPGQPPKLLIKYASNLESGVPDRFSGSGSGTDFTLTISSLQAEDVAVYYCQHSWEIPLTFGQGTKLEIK , write its reported Receptor downregulation (% remaining at 0.16 µg/mL antibody). 32.4

Given the binder AB-64.1.3 (antibody, V domains shown, Variant of AB-64.1) VH: QVQLVQSGAEVKKPGASVKISCKASGYTFTDYNLHWVRQAPGQGLEWIGFIYPSNVITGYAQKFQGRATLTVDNSTSTAYMELSSLRSEDTAVYYCARSDVDYFDYWGQGTLLTVSS VL: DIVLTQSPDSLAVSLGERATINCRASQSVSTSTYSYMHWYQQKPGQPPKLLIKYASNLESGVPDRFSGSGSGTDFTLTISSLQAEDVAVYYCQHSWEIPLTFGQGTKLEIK , write its reported Receptor downregulation (% remaining at 0.16 µg/mL antibody). 38.5

Given the binder AB-64.1.9 (antibody, V domains shown, Variant of AB-64.1) VH: QVQLVQSGAEVKKPGASVKISCKASGYTFTDYNLHWVRQAPGQGLEWIGFIYPSNQITGYAQKFQGRATLTVDNPTSTAYMELSSLRSEDTAVYYCARSDVDYFDYWGQGTLLTVSS VL: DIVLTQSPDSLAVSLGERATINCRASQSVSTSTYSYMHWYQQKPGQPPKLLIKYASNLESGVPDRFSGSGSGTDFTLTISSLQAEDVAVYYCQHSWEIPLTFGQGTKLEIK , write its reported Receptor downregulation (% remaining at 0.16 µg/mL antibody). 37.4

Given the binder AB-64.1.7 (antibody, V domains shown, Variant of AB-64.1) VH: QVQLVQSGAEVKKPGASVKISCKASGYTFTDYNLHWVRQAPGQGLEWIGFIYPSNGITGYAQKFQGRATLTVDNPTSTAYMELSSLRSEDTAVYYCARSDVDYFDYWGQGTLLTVSS VL: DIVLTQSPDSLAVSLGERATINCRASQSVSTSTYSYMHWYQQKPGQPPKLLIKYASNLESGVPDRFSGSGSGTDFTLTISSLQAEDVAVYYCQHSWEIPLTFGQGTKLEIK , write its reported Receptor downregulation (% remaining at 0.16 µg/mL antibody). 35.9

Given the binder AB-64.1.12 (antibody, V domains shown, Variant of AB-64.1) VH: QVQLVQSGAEVKKPGASVKISCKASGYTFTDYNLHWVRQAPGQGLEWIGFIYPSNRITGYAQKFQGRATLTVDNSASTAYMELSSLRSEDTAVYYCARSDVDYFDYWGQGTLLTVSS VL: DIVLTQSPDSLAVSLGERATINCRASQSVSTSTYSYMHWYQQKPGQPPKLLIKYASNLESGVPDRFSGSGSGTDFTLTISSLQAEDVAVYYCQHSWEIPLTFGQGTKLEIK , write its reported Receptor downregulation (% remaining at 0.16 µg/mL antibody). 38.5

Given the binder AB-64.1.4 (antibody, V domains shown, Variant of AB-64.1) VH: QVQLVQSGAEVKKPGASVKISCKASGYTFTDYNLHWVRQAPGQGLEWIGFIYPSNGITGYAQKFQGRATLTVDTSTSTAYMELSSLRSEDTAVYYCARSDVDYFDYWGQGTLLTVSS VL: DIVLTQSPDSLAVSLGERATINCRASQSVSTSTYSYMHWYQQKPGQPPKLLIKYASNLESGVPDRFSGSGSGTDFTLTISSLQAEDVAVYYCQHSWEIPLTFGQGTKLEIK , write its reported Receptor downregulation (% remaining at 0.16 µg/mL antibody). 38

Given the binder AB-64.1.14 (antibody, V domains shown, Variant of AB-64.1) VH: QVQLVQSGAEVKKPGASVKISCKASGYTFTDYNLHWVRQAPGQGLEWIGFIYPSNVITGYAQKFQGRATLTVDQSTSTAYMELSSLRSEDTAVYYCARSDVDYFDYWGQGTLLTVSS VL: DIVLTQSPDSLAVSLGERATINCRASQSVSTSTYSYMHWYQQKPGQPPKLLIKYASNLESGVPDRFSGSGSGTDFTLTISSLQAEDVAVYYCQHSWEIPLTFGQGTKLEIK , write its reported Receptor downregulation (% remaining at 0.16 µg/mL antibody). 38.4
